Data provenance: paper PMC5689068

- Experimental details: Rat plasma stability of 1 with or without protease inhibitors
- Type: in vitro ADME
- Condition label: t1/2, rat plasma, 1 mM EDTA, calculated after a 4 h incubation
Measured endpoint: half-life (min)

Mol	Observed result
CC[C@H](C)[C@H](NC(=O)[C@H](CCCNC(=N)N)NC(=O)[C@H](CC(C)C)NC(=O)[C@@H](N)Cc1ccccc1)C(=O)N[C@@H](CCCNC(=N)N)C(=O)N1CCC[C@H]1C(=O)N[C@@H](CCCCN)C(=O)O	48

====

- Tgt: BK receptors
- Experimental details: Radioligand competition binding assay with [3H]BK in rat brain membranes
- Condition label: pH 6.8, rat brain membranes, 1 nM [3H]BK
Where a SMILES comes first, the peptide text is derived from it. [ ]: non-standard residue; d: D form. Oic = O=C(O)[C@@H]1C[C@@H]2CCCC[C@@H]2N1; Nle = CCCC[C@H](N)C(=O)O

Compound	log[IC50], BK receptors, [3H]BK
CCCC[C@H](NC(=O)[C@@H](N)Cc1ccccc1)C(=O)N[C@@H](CCCNC(=N)N)C(=O)N[C@H](C(=O)N[C@@H](CCCNC(=N)N)C(=O)N1CCC[C@H]1C(=O)N[C@@H](CCCCN)C(=O)O)[C@@H](C)CC	−6.79
CCCC[C@H](NC(=O)[C@H](CCCNC(=N)N)NC(=O)[C@H](CC(C)C)NC(=O)[C@@H](N)Cc1ccccc1)C(=O)N[C@@H](CCCNC(=N)N)C(=O)N1CCC[C@H]1C(=O)N[C@@H](CCCCN)C(=O)O [compound 3, H-Phe-Leu-Arg-Nle-Arg-Pro-Lys-OH] (H-FLR[Nle]RPK-OH)	−7.05
CC[C@H](C)[C@H](NC(=O)[C@H](CCCNC(=N)N)NC(=O)[C@H](CC(C)C)NC(=O)[C@@H](N)Cc1ccccc1)C(=O)N[C@H](CCCNC(=N)N)C(=O)N1CCC[C@H]1C(=O)N[C@@H](CCCCN)C(=O)O	−5.23
CC[C@H](C)[C@H](NC(=O)[C@H](CCCNC(=N)N)NC(=O)[C@H](CC(C)C)NC(=O)[C@@H](N)Cc1ccccc1)C(=O)N[C@@H](CCCNC(=N)N)C(=O)N1CCC[C@H]1C(=O)N[C@H](CCCCN)C(=O)O	−6.03
CC[C@H](C)[C@H](NC(=O)[C@H](CCCNC(=N)N)NC(=O)[C@H](CC(C)C)NC(=O)[C@@H](N)Cc1ccccc1)C(=O)N[C@@H](CCCNC(=N)N)C(=O)N1[C@H](C(=O)N[C@@H](CCCCN)C(=O)O)C[C@@H]2CCCC[C@@H]21 [compound 10, H-Phe-Leu-Arg-Ile-Arg-Oic-Lys-OH] (H-FLRIR[Oic]K-OH)	−5.82
